# system: TEC (human) (UniProt P42680)
# Sequence (P42680 whole entry, looked up): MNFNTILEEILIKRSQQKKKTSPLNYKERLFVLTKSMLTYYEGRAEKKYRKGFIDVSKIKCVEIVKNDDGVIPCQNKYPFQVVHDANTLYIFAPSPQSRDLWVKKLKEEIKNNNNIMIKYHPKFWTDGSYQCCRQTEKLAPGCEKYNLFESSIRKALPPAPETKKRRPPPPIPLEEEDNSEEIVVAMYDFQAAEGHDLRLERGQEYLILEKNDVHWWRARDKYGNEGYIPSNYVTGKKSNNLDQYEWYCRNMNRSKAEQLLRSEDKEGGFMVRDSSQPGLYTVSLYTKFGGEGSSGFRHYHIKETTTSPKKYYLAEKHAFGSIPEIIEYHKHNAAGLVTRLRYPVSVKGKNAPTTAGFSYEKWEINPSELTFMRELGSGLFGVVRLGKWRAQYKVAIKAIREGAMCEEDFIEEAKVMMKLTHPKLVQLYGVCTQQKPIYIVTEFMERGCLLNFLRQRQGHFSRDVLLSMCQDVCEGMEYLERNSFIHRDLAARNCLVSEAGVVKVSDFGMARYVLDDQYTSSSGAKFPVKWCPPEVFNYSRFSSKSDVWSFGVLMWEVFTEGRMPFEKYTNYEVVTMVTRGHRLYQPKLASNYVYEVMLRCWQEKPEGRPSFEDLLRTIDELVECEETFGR
# assay: radiometric filter-binding kinase assay, Kinase HotSpot
# run-conditions: compound 0.5 µM; ATP 10 µM
Assignment: determine reported residual activity for the given molecules.
One number for each entry, in %.

Examples with their reported residual activity follow.
C[C@@H]1CCN(C(=O)CC#N)C[C@@H]1N(C)c1ncnc2[nH]ccc12: 95.4
COc1ccc2c(c1)c(C1=C(c3c[nH]c4ccccc34)C(=O)NC1=O)cn2CCCN(C)C: 97.9
NC(=O)c1cccc(-c2cc(Nc3ccc(OC(F)(F)F)cc3)ncn2)c1: 139
O=C1Nc2ccc(Br)cc2/C1=C\c1cc2c([nH]1)CCCC2: 129
CN(C)c1ccc(/C=C2\C(=O)Nc3ccccc32)cc1: 103

# batch: return residual activity for each of the 6 molecules below
1. COc1ccc(Cl)cc1NC(=O)Nc1cc(C)nc2ccccc12
2. COc1cc2ncnc(Nc3ccc(OCc4ccccc4)cc3)c2cc1OC
3. CS(=O)(=O)CCNCc1ccc(-c2ccc3ncnc(Nc4ccc(OCc5cccc(F)c5)c(Cl)c4)c3c2)o1
4. COc1ccc(C(=O)Nc2sc3c(c2C(N)=O)CCCC3)cc1OC
5. c1ccc2c(-c3ccncc3)c[nH]c2c1
6. N#C/C(=C\c1ccc(O)c(O)c1)C(=O)NCc1ccccc1

## Output
110
106
101
115
123
123

---

# system: LRRK2 (human) (UniProt Q5S007)
# Sequence (Q5S007 whole entry, looked up): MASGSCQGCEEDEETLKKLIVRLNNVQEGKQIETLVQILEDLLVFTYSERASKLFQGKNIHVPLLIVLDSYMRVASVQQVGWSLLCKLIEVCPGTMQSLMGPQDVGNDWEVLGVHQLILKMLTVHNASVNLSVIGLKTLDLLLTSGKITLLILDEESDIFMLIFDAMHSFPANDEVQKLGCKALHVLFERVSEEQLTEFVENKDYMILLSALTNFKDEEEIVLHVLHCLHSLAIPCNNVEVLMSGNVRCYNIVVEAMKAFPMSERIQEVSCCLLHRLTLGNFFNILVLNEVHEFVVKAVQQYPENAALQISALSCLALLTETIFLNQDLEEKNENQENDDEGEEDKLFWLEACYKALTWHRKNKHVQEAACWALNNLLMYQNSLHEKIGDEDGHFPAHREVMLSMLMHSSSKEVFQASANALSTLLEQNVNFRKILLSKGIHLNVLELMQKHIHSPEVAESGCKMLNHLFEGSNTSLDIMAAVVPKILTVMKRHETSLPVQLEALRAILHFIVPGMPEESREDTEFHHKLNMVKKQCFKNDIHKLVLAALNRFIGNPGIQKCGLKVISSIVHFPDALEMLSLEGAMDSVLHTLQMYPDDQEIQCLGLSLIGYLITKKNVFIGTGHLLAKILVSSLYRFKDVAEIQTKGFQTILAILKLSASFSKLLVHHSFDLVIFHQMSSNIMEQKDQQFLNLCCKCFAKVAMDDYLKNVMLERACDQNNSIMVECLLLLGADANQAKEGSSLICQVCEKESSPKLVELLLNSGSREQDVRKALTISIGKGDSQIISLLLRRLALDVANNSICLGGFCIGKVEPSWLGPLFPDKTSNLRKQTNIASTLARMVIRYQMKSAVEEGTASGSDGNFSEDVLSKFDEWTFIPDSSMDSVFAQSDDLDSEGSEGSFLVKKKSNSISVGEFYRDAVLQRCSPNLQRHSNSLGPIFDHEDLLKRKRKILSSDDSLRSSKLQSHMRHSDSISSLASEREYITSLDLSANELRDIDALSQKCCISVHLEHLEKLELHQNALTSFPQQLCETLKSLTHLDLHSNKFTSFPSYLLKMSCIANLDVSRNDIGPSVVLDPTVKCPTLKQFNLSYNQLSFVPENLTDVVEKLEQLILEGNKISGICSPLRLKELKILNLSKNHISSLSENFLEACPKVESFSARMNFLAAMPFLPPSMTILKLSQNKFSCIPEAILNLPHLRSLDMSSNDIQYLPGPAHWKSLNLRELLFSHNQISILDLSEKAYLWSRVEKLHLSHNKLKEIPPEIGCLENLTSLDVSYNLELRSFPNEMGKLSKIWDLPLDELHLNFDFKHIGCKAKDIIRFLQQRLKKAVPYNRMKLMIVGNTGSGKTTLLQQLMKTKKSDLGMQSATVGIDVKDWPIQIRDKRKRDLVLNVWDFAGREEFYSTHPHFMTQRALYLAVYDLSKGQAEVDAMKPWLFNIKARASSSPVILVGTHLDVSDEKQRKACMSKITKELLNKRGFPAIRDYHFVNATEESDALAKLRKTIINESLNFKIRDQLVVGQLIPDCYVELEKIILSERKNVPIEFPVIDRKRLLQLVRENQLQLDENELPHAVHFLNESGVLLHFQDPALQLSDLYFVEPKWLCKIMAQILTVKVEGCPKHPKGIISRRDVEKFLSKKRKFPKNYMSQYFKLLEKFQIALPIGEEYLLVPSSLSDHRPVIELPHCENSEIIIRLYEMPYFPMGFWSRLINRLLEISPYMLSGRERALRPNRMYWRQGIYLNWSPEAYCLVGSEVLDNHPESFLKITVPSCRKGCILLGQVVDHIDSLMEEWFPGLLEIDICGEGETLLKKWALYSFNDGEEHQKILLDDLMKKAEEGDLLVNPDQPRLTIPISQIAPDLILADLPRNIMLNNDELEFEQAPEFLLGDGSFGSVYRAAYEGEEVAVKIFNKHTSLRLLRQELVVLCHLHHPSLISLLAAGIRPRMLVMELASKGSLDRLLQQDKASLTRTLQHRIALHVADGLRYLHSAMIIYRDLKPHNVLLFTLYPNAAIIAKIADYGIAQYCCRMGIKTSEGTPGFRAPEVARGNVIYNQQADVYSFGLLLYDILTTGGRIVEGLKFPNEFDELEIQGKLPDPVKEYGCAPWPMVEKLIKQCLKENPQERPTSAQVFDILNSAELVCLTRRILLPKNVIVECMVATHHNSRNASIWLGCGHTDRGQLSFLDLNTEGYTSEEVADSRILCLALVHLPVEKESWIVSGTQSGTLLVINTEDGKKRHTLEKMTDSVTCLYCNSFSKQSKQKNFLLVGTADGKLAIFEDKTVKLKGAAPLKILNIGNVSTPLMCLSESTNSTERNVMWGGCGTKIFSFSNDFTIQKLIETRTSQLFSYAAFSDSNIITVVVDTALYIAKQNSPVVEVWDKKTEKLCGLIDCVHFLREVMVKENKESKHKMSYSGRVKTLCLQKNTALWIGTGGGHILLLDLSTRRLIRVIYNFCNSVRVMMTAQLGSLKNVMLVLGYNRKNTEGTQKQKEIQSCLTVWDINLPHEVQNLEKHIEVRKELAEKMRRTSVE
# assay: radiometric filter-binding kinase assay, Kinase HotSpot
# run-conditions: compound 0.5 µM; ATP 10 µM
readout-kind: residual activity (%)
One number for each entry, in %.

Examples with their reported residual activity follow.
COc1cc2ncnc(Nc3ccc(Oc4ccccc4)cc3)c2cc1OC: 65.3
O=C1c2ccccc2-c2nc3nnnn3nc21: 85.6
N#Cc1c[nH]c2c[nH]/c(=N\Cc3cccnc3)cc2/c1=N\c1ccc(F)c(Cl)c1: 86.6
O=C1NC(=O)c2c1c1c3ccccc3[nH]c1n1cncc21: 61.3
COc1ccc2c(c1)/C(=C/c1cnc[nH]1)C(O)=N2: 27.9

# batch: return residual activity for each of the 4 compounds below
1. Ic1cccc(CSc2nnc(-c3ccncc3)o2)c1
2. CN(C)S(=O)(=O)c1ccc2c(c1)/C(=C/c1cc3c([nH]1)CCCC3)C(=O)N2
3. COc1ccc(S(=O)(=O)N(CCO)c2ccccc2CN(C)C/C=C/c2ccc(Cl)cc2)cc1
4. O=C(c1cc2cc(O)ccc2[nH]1)c1cc2cc(O)ccc2[nH]1

## Output
[91.9, 1.78, 101, 87.2]

---

# system: TYRO3 (human)
# assay: radiometric filter-binding kinase assay, Kinase HotSpot
# run-conditions: compound 0.5 µM; ATP 10 µM
readout-kind: residual activity (%)
Numbers only, in %.

Examples with their reported residual activity follow.
CCCCc1c(-c2ccc(OC)cc2)[nH]c2nccnc12: 98.6
O=C1NC(=O)c2c1c1c3ccccc3[nH]c1n1cncc21: 88.8
COc1ccc2c(c1)c(C1=C(c3c[nH]c4ccccc34)C(=O)NC1=O)cn2CCCN(C)C: 90.7
COc1ccc(C(=O)Nc2sc3c(c2C(N)=O)CCCC3)cc1OC: 98.1
N#C/C(=C\c1ccc(O)c(O)c1)C(=O)NCc1ccccc1: 109
Cc1cccc(-c2nc(C(C)(C)C)[nH]c2-c2ccc3c(c2)OCO3)n1: 102
C[C@@H]1CCN(C(=O)CC#N)C[C@@H]1N(C)c1ncnc2[nH]ccc12: 103
CO[C@@H]1[C@H](N(C)C(=O)c2ccccc2)C[C@H]2O[C@]1(C)n1c3ccccc3c3c4c(c5c6ccccc6n2c5c31)C(=O)NC4: 98.8

# batch: return residual activity for each of the 2 compounds below
1. COc1cc2ncnc(Nc3ccc(Oc4ccccc4)cc3)c2cc1OC
2. COc1ccc(Cl)cc1NC(=O)Nc1cc(C)nc2ccccc12

## Output
1. 83.4
2. 98.9

Values from the kinase profiling compilation of Christmann-Franck et al. (2016)
